system: Staphylococcus epidermidis; test: Antibacterial activity against Staphylococcus epidermidis ATCC 12228 assessed as inhibition of bacterial growth incubated for 18 to 24 hrs by CLSI protocol based Tryptic soy broth method; format: functional; details: time 18-24 hrs
Parameter MIC: see the listing below.

SMILES: Cc1nc(C)c(COc2ccc(N3C[C@H](CNC(=O)CCl)OC3=O)cc2F)nc1C
LIMIT SIGN: =
MIC / µg/mL: 4
//
SMILES: Cc1nc(C)c(COc2ccc(N3C[C@H](CNC(=O)c4ccco4)OC3=O)cc2F)nc1C
LIMIT SIGN: =
MIC / µg/mL: 16
//
SMILES: CCCCc1cn(C[C@H]2CN(c3ccc(OCc4nc(C)c(C)nc4C)c(F)c3)C(=O)O2)nn1
LIMIT SIGN: >
MIC / µg/mL: 128
//
SMILES: COCC(=O)NC[C@H]1CN(c2ccc(OCc3nc(C)c(C)nc3C)c(F)c2)C(=O)O1
LIMIT SIGN: =
MIC / µg/mL: 32

====

test system: Staphylococcus aureus; test: Antibacterial activity against Staphylococcus aureus ATCC 29213 assessed as inhibition of bacterial growth by CLSI protocol based method; type: functional
Listed compounds paired with reported log10 MIC
MEASUREMENT TYPE: log10 MIC (log10 of the value in µg/mL)

SMILES: CC(=O)NC[C@H]1CN(c2ccc(N3CCN(/N=C/c4ccc([N+](=O)[O-])o4)CC3)c(F)c2)C(=O)O1
REPORTED VALUE: -0.60

SMILES: CC(=O)NC[C@H]1CN(c2ccc(N3CCN(/N=C/c4cccc([N+](=O)[O-])c4)CC3)c(F)c2)C(=O)O1
REPORTED VALUE: 0.30

SMILES: CC(=O)NC[C@H]1CN(c2ccc(N3CCN(/N=C/c4ccc([N+](=O)[O-])cc4)CC3)c(F)c2)C(=O)O1
REPORTED VALUE: 0.60

SMILES: CC(=O)NC[C@H]1CN(c2ccc(N3CCN(/N=C/Cn4c([N+](=O)[O-])cnc4C)CC3)c(F)c2)C(=O)O1
REPORTED VALUE: 0.00

SMILES: CC(=O)NC[C@H]1CN(c2ccc(N3CCN(/N=C(\C)Cn4c([N+](=O)[O-])cnc4C)CC3)c(F)c2)C(=O)O1
REPORTED VALUE: 0.00

SMILES: CC(=O)NC[C@H]1CN(c2ccc(N3CCN(Cc4ccc([N+](=O)[O-])o4)CC3)c(F)c2)C(=O)O1
REPORTED VALUE: 0.00

SMILES: CC(=O)NC[C@H]1CN(c2ccc(N3CCN(/N=C/c4c(Cl)cccc4[N+](=O)[O-])CC3)c(F)c2)C(=O)O1
REPORTED VALUE: 0.90

SMILES: CC(=O)NC[C@H]1CN(c2ccc(N3CCN(/N=C/c4ccccc4[N+](=O)[O-])CC3)c(F)c2)C(=O)O1
REPORTED VALUE: 0.30

SMILES: CC(=O)NC[C@H]1CN(c2ccc(N3CCN(/N=C/c4ccc([N+](=O)[O-])s4)CC3)c(F)c2)C(=O)O1
REPORTED VALUE: -0.60

====

test system: Bacillus subtilis; test: Antibacterial activity against Bacillus subtilis assessed as inhibition of bacterial growth measured per 100 uL incubated for 24 hrs by agar well diffusion method; type: functional
MEASUREMENT TYPE: MIC (µg)

COMPOUND: O=C(O)c1cn(C2CC2)c2cc(N3CCNCC3)c(F)cc2c1=O [CIPROFLOXACIN]
MEASUREMENT TYPE: MIC
REPORTED VALUE: 6.25
--
COMPOUND: O=C1NC(Cc2ccc(Nc3nc(-c4ccc(-c5ccccc5)cc4)cs3)cc2)CO1 (stereo not given)
MEASUREMENT TYPE: MIC
REPORTED VALUE: 6.25
--
COMPOUND: O=C1NC(Cc2ccc(Nc3nc(-c4ccccc4F)cs3)cc2)CO1 (stereo not given)
MEASUREMENT TYPE: MIC
REPORTED VALUE: 12.5
--
COMPOUND: O=C1NC(Cc2ccc(Nc3nc(-c4c(O)oc(O)cc4=O)cs3)cc2)CO1 (stereo not given)
MEASUREMENT TYPE: MIC
REPORTED VALUE: 25
--
COMPOUND: O=C1NC(Cc2ccc(Nc3nc(-c4ccc(F)cc4)cs3)cc2)CO1 (stereo not given)
MEASUREMENT TYPE: MIC
REPORTED VALUE: 12.5
